Assay: chemical genetic growth profiling, strain panel (AID 1159580);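 note: tested at 20 µM; growth read once vehicle control cultures reached saturation at 30 °C; 1 = growth at the plate median or of vehicle wells; lower values mean less growth of the strain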
Settings: S. cerevisiae deletion strains, growth OD, locus YDR195W, strain ref2
Among all 5,500 compounds or so, about 2,000 (36%) were called active. Not shown: some 18% with an inconclusive outcome. Some of the results follow.
normalized growth by entry:

Sample records with normalized growth:
[
  {
    "Compound": "Nc1c2ccccc2nc2ccccc12",
    "Readout Value": "1.23 [resistant] (active)"
  },
  {
    "Compound": "C[C@@H]1CC[C@]2(C(=O)O)CC[C@]3(C)C(=CCC4[C@@]5(C)CC[C@H](O)C(C)(C)C5CC[C@]43C)C2[C@H]1C (some centres undefined)",
    "Readout Value": "0.974 (inactive)"
  },
  {
    "Compound": "CC1(C)CCC2(C(=O)O)CCC3(C)C(=CCC4C5(C)CCC(O)C(C)(C)C5C(O)CC43C)C2C1 (centres undefined)",
    "Readout Value": "1.06 (inactive)"
  },
  {
    "Compound": "C[C@H]1[C@H](C)CC[C@]2(CO)CC[C@]3(C)C(=CCC4[C@@]5(C)CC[C@H](O)C(C)(C)C5CC[C@]43C)[C@H]12 (some centres undefined)",
    "Readout Value": "0.992 (inactive)"
  },
  {
    "Compound": "C/C=C1\\[C@H]2C=C(C)C[C@]1(N)c1ccc(=O)[nH]c1C2",
    "Readout Value": "0.989 (inactive)"
  }
]

Lab book: normalized growth of C#C[C@]1(O)CCC2C3CCC4=CC(=O)CC[C@@H]4C3CC[C@@]21C (some centres undefined) noted as 1.01 (inactive)

In plain terms, C[C@]12CCC(=O)C=C1CCC1C2[C@@H](O)C[C@@]2(C)C1CC[C@]2(O)C(=O)CO (some centres undefined) has a documented normalized growth of 0.974 (inactive)

normalized growth recorded for this compound, Cc1ccc(-c2cc(C(F)(F)F)nn2-c2ccc(S(N)(=O)=O)cc2)cc1 , is 1.05 (inactive)

GET /value?item= CC1(C)CC[C@@]2(C(=O)O)C(C1)C1=CCC3[C@@]4(C)CC[C@H](O)C(C)(C)C4CC[C@@]3(C)[C@]1(C)C[C@@H]2O (some centres undefined) &field=normalized growth returns 0.952 (inactive)

====

Experiment: chemical genetic growth profiling, strain panel (AID 1159580)
Conditions: S. cerevisiae deletion strains, growth OD, locus YEL061C, strain CIN8, active compounds read low
Out of some 5,500 compounds screened, about 2,000 (36%) were called active. Not shown: some 18% with an inconclusive outcome. The list shows a part of the results.
The entries below come with measured normalized growth values attached.
Write no unit; give the number alone.

[
  {
    "Molecule": "CCCOc1ccccc1-c1nc2n[nH]nc2c(=O)[nH]1",
    "Readout Value": 1.01
  },
  {
    "Molecule": "NC(N)=N/N=C/c1c(Cl)cccc1Cl",
    "Readout Value": 1.01
  },
  {
    "Molecule": "C#C[C@]1(O)CCC2C3CCC4=CC(=O)CC[C@@H]4C3CC[C@@]21C (stereo partly specified)",
    "Readout Value": 0.995
  },
  {
    "Molecule": "CC(=O)NCc1c(I)c(NC(C)=O)c(I)c(C(=O)O)c1I",
    "Readout Value": 0.997
  },
  {
    "Molecule": "CCOC(=O)OC(C)OC(=O)C1N2C(=O)C(NC(=O)[C@H](N)c3ccccc3)C2SC1(C)C (stereo partly specified)",
    "Readout Value": 0.976
  },
  {
    "Molecule": "N[C@H](C(=O)O)[C@@H]1CC(Cl)=NO1",
    "Readout Value": 0.409
  }
]

Pending molecule:
Briefly, normalized growth measured for CCC(C)C(NC)C(=O)O (stereo unspecified) : 0.983

====

Assay: chemical genetic growth profiling, strain panel (AID 1159580)
Details: S. cerevisiae deletion strains, growth OD, locus YOR270C, strain vph1, active compounds read low
In all, about 5,500 compounds went through this assay and about 2,000 (36%) were called active. Roughly 18% stayed inconclusive and do not appear here. The list shows a part of the results.
Below, each entry is listed with its recorded normalized growth.
No unit in the answer, only the number.

Past entries and their recorded results:
[
  {
    "Compound": "C[C@@H]1CC[C@H]2[C@@H](C)C(=O)O[C@@H]3O[C@@]4(C)CC[C@@H]1[C@]32OO4",
    "Recorded Endpoint": "normalized growth",
    "Readout Value": 0.633
  },
  {
    "Compound": "CCOc1ccc2nc3cc(N)ccc3c(N)c2c1",
    "Recorded Endpoint": "normalized growth",
    "Readout Value": 0.707
  },
  {
    "Compound": "N=C(N)SCCN",
    "Recorded Endpoint": "normalized growth",
    "Readout Value": 1.06
  },
  {
    "Compound": "Cc1ccc(N=CN(C)C=Nc2ccc(C)cc2C)c(C)c1",
    "Recorded Endpoint": "normalized growth",
    "Readout Value": 0.837
  },
  {
    "Compound": "Cc1ccnc(NS(=O)(=O)c2ccc(N)cc2)n1",
    "Recorded Endpoint": "normalized growth",
    "Readout Value": 1.04
  }
]

The compound NNc1nncc2ccccc12 showed normalized growth equal to 0.996

Measured normalized growth of CC(C)CC(N(C)C)C1(c2ccc(Cl)cc2)CCC1 (configuration not stated) : 0.991

====

Test: chemical genetic growth profiling, strain panel (AID 1159580);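 note: tested at 20 µM; growth read once vehicle control cultures reached saturation at 30 °C; 1 = growth at the plate median or of vehicle wells; lower values mean less growth of the strain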
Conditions: S. cerevisiae deletion strains, growth OD, locus YMR058W, strain fet3
Hit rate of the full screen: of about 5,500 compounds, about 2,000 (36%) were called active. Roughly 18% stayed inconclusive and do not appear here. Rule as the data show it: active = normalized growth mostly below about 0.91 (no sharp cut-off); inconclusive = no clear call, values can overlap the other calls; inactive = mostly above about 0.92. Some of the results follow.
Choose the fitting class; nothing outside TRUE (active), FALSE (inactive) is accepted.

Use these answered entries as a reference point.
[
  {
    "Molecule": "CC1OC(=O)C(C(C)C)NC(=O)C(C(C)C)OC(=O)C(C(C)C)NC(=O)C(C)OC(=O)C(C(C)C)NC(=O)C(C(C)C)OC(=O)C(C(C)C)NC(=O)C(C)OC(=O)C(C(C)C)NC(=O)C(C(C)C)OC(=O)C(C(C)C)NC1=O (centres undefined)",
    "Discrete Label": "TRUE"
  },
  {
    "Molecule": "C[C@H]1[C@H](C)CC[C@]2(CO)CC[C@]3(C)C(=CCC4[C@@]5(C)CC[C@H](O)C(C)(C)C5CC[C@]43C)[C@H]12 (some centres undefined)",
    "Discrete Label": "FALSE"
  },
  {
    "Molecule": "Nc1c2ccccc2nc2ccccc12",
    "Discrete Label": "TRUE"
  }
]

Fill in: this test's call for CCOP(=S)(OCC)Oc1nc(Cl)c(Cl)cc1Cl is ___
FALSE

====

Assay: chemical genetic growth profiling, strain panel (AID 1159580);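 note: tested at 20 µM; growth read once vehicle control cultures reached saturation at 30 °C; 1 = growth at the plate median or of vehicle wells; lower values mean less growth of the strain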
Conditions: S. cerevisiae deletion strains, growth OD, locus YLR418C, strain cdc73
In all, about 5,500 compounds went through this assay and about 2,000 (36%) were called active. Not shown: some 18% with an inconclusive outcome. Cut-off read from the data, not from the text of the source: active = normalized growth mostly below about 0.91 (no sharp cut-off); inconclusive = no clear call, values can overlap the other calls; inactive = mostly above about 0.92. The list shows a part of the results.
Outcomes you can answer with include only these: active, inactive

Here's what some known entries look like.
[
  {
    "Compound": "CC(C)(Sc1cc(C(C)(C)C)c(O)c(C(C)(C)C)c1)Sc1cc(C(C)(C)C)c(O)c(C(C)(C)C)c1",
    "Discrete Label": "inactive"
  },
  {
    "Compound": "Cc1cc(O)cc(=O)o1",
    "Discrete Label": "inactive"
  },
  {
    "Compound": "C=C/C(C)=C\\CC1C(C)(O)CCC2C(C)(C)CCCC21C (stereo not drawn)",
    "Discrete Label": "active"
  }
]

--- query ---
Please let me know the test result on file for N#CC(O[C@@H]1O[C@H](CO[C@@H]2O[C@H](CO)[C@@H](O)[C@H](O)[C@H]2O)[C@@H](O)[C@H](O)[C@H]1O)c1ccccc1 (stereo partly drawn) .
inactive

====

Assay: chemical genetic growth profiling, strain panel (AID 1159580);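 note: tested at 20 µM; growth read once vehicle control cultures reached saturation at 30 °C; 1 = growth at the plate median or of vehicle wells; lower values mean less growth of the strain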
Details: S. cerevisiae deletion strains, growth OD, locus YCL061C, strain MRC1, active compounds read low
Hit rate of the full screen: of about 5,500 compounds, about 2,000 (36%) were called active. About 18% were inconclusive and are not listed. This is one part of the list.
Recorded Endpoint: normalized growth
Lab note: record the figure alone, no unit after it.

Recorded results for 4 compounds are shown here.
[
  {
    "Compound": "N=C(N)c1ccc(OCCCCCOc2ccc(C(=N)N)cc2)cc1",
    "normalized growth": 0.916
  },
  {
    "Compound": "CC(C)CCCC1(C)C=Cc2c(O)c3c(c(CCC(C)C)c2O1)OC12C(CC4CC1C(C)(C)OC2(CCC(C)C(=O)O)C4O)C3=O (stereo not given)",
    "normalized growth": 0.986
  },
  {
    "Compound": "C#C[C@]1(O)CCC2C3CCC4=CC(=O)CC[C@@H]4C3CC[C@@]21CC (stereo not given in full)",
    "normalized growth": 0.991
  },
  {
    "Compound": "O=c1oc2cc(O)ccc2s1",
    "normalized growth": 0.997
  }
]

Short answer for Cc1nc(-c2nnc(Sc3ccc(C(F)(F)F)cc3[N+](=O)[O-])n2C)cs1 : normalized growth was 0.995
